Reference for the values: patent US8497263B2

As shown below, each of these compounds has a reported melting point value.
Readout kind: melting point

CCC(CC)C1C(C(=O)c2ccc(OC)nc2)=C(O)C(=O)N1c1ccc(-c2ccon2)cc1 (stereo not drawn) [Example I-207] ... 246 to 249 °C
COc1ccc(C(=O)C2=C(O)C(=O)N(c3ccc(C4=NCCS4)cc3)C2c2ccc(F)cc2)cc1 (stereo not drawn) [Example I-216] ... 229 to 232 °C
COc1ccc(C(=O)C2=C(O)C(=O)N(c3ccc(-c4ccon4)cc3)C2c2ccccc2F)cc1 (stereo not drawn) [Example I-31] ... 270 to 271 °C (dec.)
COc1ccc(C(=O)C2=C(O)C(=O)N(Cc3ccc(C(F)(F)F)cc3)C2c2ccc(F)cc2)cc1 (stereo not drawn) [Example I-204] ... 234 to 237 °C
COc1ccc(C(=O)C2=C(O)C(=O)N(c3ccc(Br)cc3)C2c2ccccc2)cc1 (stereo not drawn) [Example I-237] ... 233 to 236 °C
COc1ccc(C(=O)C2=C(O)C(=O)N(c3ccc(-c4ccon4)cc3)C2c2cccc(F)c2)cc1 (stereo not drawn) [Example I-26] ... 273 to 274 °C (dec.)
COc1ccc(C2=NCCNC3=C2C(c2ccc(F)cc2)N(c2ccc(C(F)(F)F)cc2)C3=O)cc1 (stereo not drawn) [Example I-229] ... 213 to 215 °C
COc1ccccc1C1c2c(C(C)(C)C)n[nH]c2C(=O)N1c1cccc(-c2ccon2)c1 (stereo not drawn) [II-8] ... 202 °C
COc1ccc(C(=O)C2=C(O)C(=O)N(c3ccc(-c4ccon4)cc3)C2c2ccccc2)cc1 (stereo not drawn) [Example I-50] ... 271 to 274 °C
COc1ccc(C(=O)C2=C(O)C(=O)N(c3ccc(C(=O)O)cc3)C2c2ccccc2)cc1 (stereo not drawn) [Example I-87] ... 268 to 271 °C
COc1ccc(C(=O)C2=C(O)C(=O)N(c3ccc(-c4noc(C)n4)cc3)C2C2CCCCC2)cc1 (stereo not drawn) [Example I-231] ... 245 to 248 °C
COc1ccc(C(=O)C2=C(O)C(=O)N(c3ccc(-c4ccon4)cc3)C2c2cccc(Cl)c2)cc1 (stereo not drawn) [Example I-27] ... 238 to 240 °C
COc1ccc(C(=O)C2=C(O)C(=O)N(c3ccc(-c4ccon4)cc3)C2c2ccc(Cl)cc2)cc1 (stereo not drawn) [Example I-11] ... 268 to 270 °C (dec.)
COc1ccc(C(=O)C2=C(O)C(=O)N(c3ccc(-c4noc(C)n4)cc3)C2c2ccc(F)cc2)cc1 (stereo not drawn) [Example I-14] ... 236 to 239 °C
CC(C)(C)c1n[nH]c2c1C(C1CCCCC1)N(c1ccc(C(F)(F)F)cc1)C2=O (stereo not drawn) [Example I-194] ... 245 to 246 °C
COc1ccc(-c2n[nH]c3c2C(c2ccc(F)cc2)N(c2ccc(-c4ccon4)cc2)C3=O)cc1 (stereo not drawn) [Example I-210] ... 164 to 166 °C
COc1ccc(C(=O)C2=C(O)C(=O)N(c3ccc(-c4nnco4)cc3)C2c2ccc(F)cc2)cc1 (stereo not drawn) [Example I-213] ... 244 to 247 °C
CC(C)(C)C(=O)C1=C(O)C(=O)N(c2ccc(C(F)(F)F)cc2)C1C1CCCCC1 (stereo not drawn) [Example I-56] ... 238 to 239 °C
CCC(CC)C1C(C(=O)c2ccc(OC)cc2)=C(O)C(=O)N1c1ccc(-c2noc(C)n2)cc1 (stereo not drawn) [Example I-232] ... 223 to 225 °C
COc1ccc(C(=O)C2=C(O)C(=O)N(c3ccc(OC(F)(F)F)cc3)C2c2ccc(F)cc2)cc1 (stereo not drawn) [Example I-48] ... 241 to 244 °C
CCOC(=O)c1ccc(N2C(=O)C(OCc3ccccc3)=C(C(=NO)c3ccc(OC)cc3)C2c2ccccc2)cc1 (stereo not drawn) [Example I-225] ... 196 to 201 °C
COc1ccc(C(=O)C2C(=O)C(=O)N(c3ccc(-c4ccon4)cc3)C2c2ccccc2Cl)cc1 (stereo not drawn) [Example I-40] ... 254 to 258 °C (dec.)
COc1ccc(C(=O)C2=C(O)C(=O)N(c3ccc(-c4ccon4)cc3)C2C2CCN(C(=O)OC(C)(C)C)CC2)cc1 (stereo not drawn) [Example I-222] ... 247 to 249 °C
COc1ccc(C(=O)C2=C(O)C(=O)N(c3ccc(-c4ccon4)cc3)C2C(C)c2ccccc2)cc1 (stereo not drawn) [Example I-221] ... 241 to 244 °C
COc1ccc(C(=O)C2=C(O)C(=O)N(c3ccc(-c4nc(C)no4)cc3)C2c2ccc(F)cc2)cc1 (stereo not drawn) [Example I-25] ... 236 to 239 °C
CO/N=C/c1ccc(N2C(=O)C(O)=C(C(=O)c3ccc(OC)cc3)C2c2ccc(F)cc2)cc1 (stereo not drawn) [Example I-209] ... 232 to 235 °C
CCCC(C)C1C(C(=O)c2ccc(OC)cc2)=C(O)C(=O)N1c1ccc(-c2ccon2)cc1 (stereo not drawn) [Example I-214] ... 227 to 232 °C
COc1ccc(C(=O)C2=C(O)C(=O)N(c3ccc(C(F)(F)F)cc3)C2c2ccc(F)cc2)cc1 (stereo not drawn) [Example I-34] ... 253 to 256 °C (dec.)
COc1ccc(C(=O)C2=C(O)C(=O)N(c3ccc(SC(F)(F)F)cc3)C2c2ccc(F)cc2)cc1 (stereo not drawn) [Example I-45] ... 225 to 228 °C (dec.)
CCOC(=O)c1ccc(N2C(=O)C(=O)C(C(=O)c3ccc(OC)cc3)C2C2CCCCC2)cc1 (stereo not drawn) [Example I-2] ... 252 to 255 °C
